Task for the reader: assign each of the following sequences its reported recombinant barcode read abundance (log10).
method summary: recombinant barcode read abundance after kanamycin selection (control-corrected) (log10(CPM+1)); higher = more efficient recombination; sequences stand for … in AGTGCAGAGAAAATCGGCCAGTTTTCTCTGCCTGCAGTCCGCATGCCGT…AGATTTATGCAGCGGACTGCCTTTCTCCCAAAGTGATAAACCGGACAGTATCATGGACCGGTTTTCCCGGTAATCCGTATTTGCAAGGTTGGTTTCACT; site = the 11-nt target;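 also: IS621 recombinase and bridge RNA in Escherichia coli cells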
A bare number is all that is needed in reply.

Form field recombinant barcode read abundance (log10), entry TTAGGGTCTTGGGTTCTAACCTGTTGCCT (site TTAGGGGCTAG) : 0.0984

Form field recombinant barcode read abundance (log10), entry TTAGTTGCTTGGGTTCTAACCTGTTGCCT (site TTAGTGGCTAG) : 0.0286

Form field recombinant barcode read abundance (log10), entry ACACTAACTTGGGTTCTAACCTGTTGCCT (site ATACTAACTAG) : 0

Form field recombinant barcode read abundance (log10), entry CCTAGAACTTGGGTTCTAACCTGTTGCCT (site CCTAGACCTAG) : 0.0135

Form field recombinant barcode read abundance (log10), entry CAAAGTCCTTGGGTTCTAACCTGTTGCAT (site CAAAGTCCTAA) : 0.191

Form field recombinant barcode read abundance (log10), entry TGTAAGACTTGGGTTCTAACCTGTTGCTG (site TGTAAGACTCA) : 0.505

Form field recombinant barcode read abundance (log10), entry GTCTCATCTTGGGTTCTAACCTGTTGCCT (site GTCTAATCTAG) : 0.0787

Form field recombinant barcode read abundance (log10), entry TAGTTACCTTGGGTTCTAACCTGTTGCCG (site TACTTAGCTCG) : 0.00977

Form field recombinant barcode read abundance (log10), entry CTGAGGACTTGGGTTCTAACCTGTTGCCT (site CTGAGGACTAG) : 1.29

Form field recombinant barcode read abundance (log10), entry ACGCGTGCTTGGGTTCTAACCTGTTGCGG (site ACGCGTGCTCC) : 0.727

Form field recombinant barcode read abundance (log10), entry GTTCCCTCTTGGGTTCTAACCTGTTGCTT (site GTTCCCTCTAA) : 1.9

Form field recombinant barcode read abundance (log10), entry CACCCTACTTGGGTTCTAACCTGTTGCCT (site GACCCTACTAG) : 0.0997

Form field recombinant barcode read abundance (log10), entry GAGAGGTCTTGGGTTCTAACCTGTTGCCT (site GAGAGGTCTAA) : 0.298

Form field recombinant barcode read abundance (log10), entry GTGGAGGCTTGGGTTCTAACCTGTTGCCT (site GTGGAGGCTAG) : 1.5

Form field recombinant barcode read abundance (log10), entry CTTCGGGCTTGGGTTCTAACCTGTTGCAA (site CTTCGGGCTTT) : 0.915

Form field recombinant barcode read abundance (log10), entry CACTTCCCTTGGGTTCTAACCTGTTGCGA (site CACTTCCCTTC) : 0.492

Form field recombinant barcode read abundance (log10), entry CAATGGCCTTGGGTTCTAACCTGTTGCCT (site CAACGGCCTAG) : 0.253

Form field recombinant barcode read abundance (log10), entry GACCGCTCTTGGGTTCTAACCTGTTGCTA (site GTCAGCTCTTA) : 0.37

Form field recombinant barcode read abundance (log10), entry GAATGGACTTGGGTTCTAACCTGTTGCGA (site GAATGGACTTC) : 2.45

Form field recombinant barcode read abundance (log10), entry GACCAGCCTTGGGTTCTAACCTGTTGCCT (site GACCAGCCTAG) : 0.98

Form field recombinant barcode read abundance (log10), entry GTCACAACTTGGGTTCTAACCTGTTGCCG (site AGGTTTGCTAA) : 0.056

---

method summary: recombinant barcode read abundance after kanamycin selection (control-corrected) (log10(CPM+1)); higher = more efficient recombination; sequences stand for … in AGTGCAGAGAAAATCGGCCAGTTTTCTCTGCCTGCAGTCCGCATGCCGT…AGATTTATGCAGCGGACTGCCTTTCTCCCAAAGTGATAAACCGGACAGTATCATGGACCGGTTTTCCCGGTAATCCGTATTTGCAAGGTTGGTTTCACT; site = the 11-nt target
Task for the reader: assign each of the following sequences its reported recombinant barcode read abundance (log10).

Form field recombinant barcode read abundance (log10), entry GCACGAACTTGGGTTCTAACCTGTTGCCT (site GCCCGAACTAG) : 0.133

Form field recombinant barcode read abundance (log10), entry CACTATCCTTGGGTTCTAACCTGTTGCCT (site CAGTATCCTAG) : 0.157

Form field recombinant barcode read abundance (log10), entry AGCATAACTTGGGTTCTAACCTGTTGCCT (site AGCATAACTAG) : 0.187

Form field recombinant barcode read abundance (log10), entry GCCAACCCTTGGGTTCTAACCTGTTGCCT (site GCCAACCCTAA) : 0.111

Form field recombinant barcode read abundance (log10), entry GGTTTAGCTTGGGTTCTAACCTGTTGCTA (site TGTATAGCTTA) : 0.0842

Form field recombinant barcode read abundance (log10), entry TACCTATCTTGGGTTCTAACCTGTTGCGT (site TACCTATCTAC) : 1.83

Form field recombinant barcode read abundance (log10), entry CGTATCTCTTGGGTTCTAACCTGTTGCCT (site CGTATCTCTAG) : 0.406

Form field recombinant barcode read abundance (log10), entry CAAAGTCCTTGGGTTCTAACCTGTTGCGT (site CAAAGTCCTAT) : 0.932

Form field recombinant barcode read abundance (log10), entry GCTCTAGCTTGGGTTCTAACCTGTTGCCT (site GCACAAGCTAG) : 0.0696

Form field recombinant barcode read abundance (log10), entry TCTGATCCTTGGGTTCTAACCTGTTGCCT (site TCTCACCCTAG) : 0.0615

Form field recombinant barcode read abundance (log10), entry TAGTGCTCTTGGGTTCTAACCTGTTGCCG (site TAGTGCTCTGG) : 0.0187

Form field recombinant barcode read abundance (log10), entry ACCCAGCCTTGGGTTCTAACCTGTTGCCT (site ACCCAGCCTAT) : 0.522

Form field recombinant barcode read abundance (log10), entry ATTTCGACTTGGGTTCTAACCTGTTGCCT (site AGTTCGACTAG) : 0.142

Form field recombinant barcode read abundance (log10), entry TCAGCGACTTGGGTTCTAACCTGTTGCCT (site TCTGCGACTAG) : 0.39

Form field recombinant barcode read abundance (log10), entry TCGAGGCCTTGGGTTCTAACCTGTTGCGG (site TCGAGGCCTCC) : 1.34

Form field recombinant barcode read abundance (log10), entry TCTAACCCTTGGGTTCTAACCTGTTGCGG (site TCAAACCCTCC) : 0.332

Form field recombinant barcode read abundance (log10), entry GGTAGGACTTGGGTTCTAACCTGTTGCCT (site CGTAGGACTAG) : 0.0936

Form field recombinant barcode read abundance (log10), entry GTCTTACCTTGGGTTCTAACCTGTTGCCT (site GTCATACCTAG) : 0.0521

Form field recombinant barcode read abundance (log10), entry CTACGATCTTGGGTTCTAACCTGTTGCAC (site CTACGCTCTGT) : 0.162

Form field recombinant barcode read abundance (log10), entry CTGTGCCCTTGGGTTCTAACCTGTTGCCT (site CTGCGCCCTAG) : 0.0771

Form field recombinant barcode read abundance (log10), entry CTATAGGCTTGGGTTCTAACCTGTTGCCT (site ATATACGCTAG) : 0.0845

Form field recombinant barcode read abundance (log10), entry TTAGTCGCTTGGGTTCTAACCTGTTGCCT (site TTAGTCGCTAG) : 2.28

Form field recombinant barcode read abundance (log10), entry AGACCACCTTGGGTTCTAACCTGTTGCCT (site AAACCACCTAG) : 0.383

Form field recombinant barcode read abundance (log10), entry GTCGGCGCTTGGGTTCTAACCTGTTGCCT (site GTGGGCGCTAG) : 0.531

Form field recombinant barcode read abundance (log10), entry GGCGCGTCTTGGGTTCTAACCTGTTGCCT (site GGCGCGTCTAG) : 0.557

Form field recombinant barcode read abundance (log10), entry CCAAATCCTTGGGTTCTAACCTGTTGCAT (site CCAAATCCTAT) : 0.189

Form field recombinant barcode read abundance (log10), entry TGGTGCCCTTGGGTTCTAACCTGTTGCGG (site TGCTTCCCTCC) : 0.109

Form field recombinant barcode read abundance (log10), entry GACTCTCCTTGGGTTCTAACCTGTTGCGT (site GACTCTCCTAA) : 0.103

Form field recombinant barcode read abundance (log10), entry CAGGCGGCTTGGGTTCTAACCTGTTGCCT (site CAGGCGCCTAG) : 0.254

Form field recombinant barcode read abundance (log10), entry CGGGCCTCTTGGGTTCTAACCTGTTGCTG (site CGGGCCTCTGA) : 0.217

Form field recombinant barcode read abundance (log10), entry CTACGGTCTTGGGTTCTAACCTGTTGCAC (site CTACGATCTGT) : 0.256

Form field recombinant barcode read abundance (log10), entry TTCAAGCCTTGGGTTCTAACCTGTTGCGT (site TTCAAGCCTAC) : 1.17

Form field recombinant barcode read abundance (log10), entry TGTAGAGCTTGGGTTCTAACCTGTTGCCG (site TGTAGAGCTCG) : 0.243

Form field recombinant barcode read abundance (log10), entry GATCGAGCTTGGGTTCTAACCTGTTGCGA (site GATGGAGCTCC) : 0.428

Form field recombinant barcode read abundance (log10), entry AGAGGGTCTTGGGTTCTAACCTGTTGCTT (site GGAGGGTCTAA) : 0.0269

Form field recombinant barcode read abundance (log10), entry AGGTCTACTTGGGTTCTAACCTGTTGCCA (site AGGTCTACTTG) : 0.6

Form field recombinant barcode read abundance (log10), entry GGGTCCTCTTGGGTTCTAACCTGTTGCCT (site GGGTCCTCTTG) : 0.155

Form field recombinant barcode read abundance (log10), entry CTATATACTTGGGTTCTAACCTGTTGCTT (site CTATATACTAA) : 0.804

Form field recombinant barcode read abundance (log10), entry CTCTTCCCTTGGGTTCTAACCTGTTGCTT (site CTATTCCCTCA) : 0.155

Form field recombinant barcode read abundance (log10), entry ACGCGGCCTTGGGTTCTAACCTGTTGCCT (site GCGCGGCCTAG) : 0.147

Form field recombinant barcode read abundance (log10), entry TTGCCTTCTTGGGTTCTAACCTGTTGCCT (site TTGCCTTCTAG) : 0.686

Form field recombinant barcode read abundance (log10), entry GCTACCTCTTGGGTTCTAACCTGTTGCCT (site GTGACCTCTAG) : 0.254
